Test system: S. pneumoniae isolates
Assay type: cell-based
measurement_context: Streptococcus pneumoniae, read-out: MIC Daw19
Catalogue of molecules with associated MIC
Reply numerically in µg/mL, unit not repeated.

// CC1(C)S[C@@H]2[C@H](NC(=O)Cc3ccccc3)C(=O)N2[C@H]1C(=O)O : MIC value = 3

// CO/N=C(\C(=O)N[C@@H]1C(=O)N2C(C(=O)O)=C(COC(C)=O)CS[C@H]12)c1csc(N)n1 : MIC value = 1

// CC[C@H]1OC(=O)[C@H](C)[C@@H](O[C@H]2C[C@@](C)(OC)[C@@H](O)[C@H](C)O2)[C@H](C)[C@@H](O[C@@H]2O[C@H](C)C[C@H](N(C)C)[C@H]2O)[C@](C)(O)C[C@@H](C)C(=O)[C@H](C)[C@@H](O)[C@]1(C)O : MIC value = 1

// CN[C@@H]1[C@H](O)[C@H](NC)[C@H]2O[C@@]3(O)C(=O)C[C@@H](C)O[C@H]3O[C@@H]2[C@H]1O : MIC value = 25

---

System: S. pneumoniae isolates
Assay type: cell-based
measurement_context: Streptococcus pneumoniae, read-out: MIC Daw8
Catalogue of compounds with associated MIC
Reply numerically in µg/mL, unit not repeated.

Some solved cases for reference:
CN[C@@H]1[C@H](O)[C@H](NC)[C@H]2O[C@@]3(O)C(=O)C[C@@H](C)O[C@H]3O[C@@H]2[C@H]1O 25
[H]/N=C(/N)N[C@H]1[C@H](O)[C@@H](O)[C@H](O[C@@H]2O[C@@H](C)[C@](O)(C=O)[C@H]2O[C@@H]2O[C@@H](CO)[C@H](O)[C@@H](O)[C@@H]2NC)[C@@H](N/C(N)=N\[H])[C@@H]1O 25

Test item CC1(C)S[C@@H]2[C@H](NC(=O)Cc3ccccc3)C(=O)N2[C@H]1C(=O)O ; S. pneumoniae isolates; reported MIC was 3

---

Catalogue of compounds with associated MIC
System: S. pneumoniae isolates
Format: cell-based
measurement_context: Streptococcus pneumoniae, read-out: MIC OVA2
Reply numerically in µg/mL, unit not repeated.

[H]/N=C(/N)N[C@H]1[C@H](O)[C@@H](O)[C@H](O[C@@H]2O[C@@H](C)[C@](O)(C=O)[C@H]2O[C@@H]2O[C@@H](CO)[C@H](O)[C@@H](O)[C@@H]2NC)[C@@H](N/C(N)=N\[H])[C@@H]1O 13

// CN[C@@H]1[C@H](O)[C@H](NC)[C@H]2O[C@@]3(O)C(=O)C[C@@H](C)O[C@H]3O[C@@H]2[C@H]1O : MIC value = 13

// CC[C@H]1OC(=O)[C@H](C)[C@@H](O[C@H]2C[C@@](C)(OC)[C@@H](O)[C@H](C)O2)[C@H](C)[C@@H](O[C@@H]2O[C@H](C)C[C@H](N(C)C)[C@H]2O)[C@](C)(O)C[C@@H](C)C(=O)[C@H](C)[C@@H](O)[C@]1(C)O : MIC value = 1
